These data points were gathered from PubChem BioAssay (NCI).

# System: UACC-62 melanoma
# methodDescription: NCI tumour cell line growth inhibition, 48 h; in the data active means GI50 below about 0.43 µM; inactive means the rest
Possible outcomes: active, inactive

- compound: "CCCN(CCC)c1ccc(/C=N/NC(=O)c2cccnc2)cc1"
  targetOfAssay: "UACC-62 melanoma"
  classAssignment: "inactive"
- compound: "C=CCCC(O)c1ccc(CCCCCCCCCCC)o1 (stereo not drawn)"
  targetOfAssay: "UACC-62 melanoma"
  classAssignment: "inactive"
- compound: "COc1cc(C2C(C(=O)OCc3ccccc3)=C(C)NC(C)=C2C(=O)OCc2ccccc2)cc(OC)c1OC"
  targetOfAssay: "UACC-62 melanoma"
  classAssignment: "inactive"
- compound: "COc1ccc2cc(C(=O)/C=C/c3ccco3)ccc2c1"
  targetOfAssay: "UACC-62 melanoma"
  classAssignment: "inactive"
- compound: "CNc1ccc(C(=O)CC(O)CCC(C)C2OC(=O)CC(O)CC(=O)CC(O)CC(O)CC(O)CC(O)CC3(O)CC(O)C(C(=O)NCCc4ccccn4)C(CC(OC4OC(C)C(O)C(N)C4O)/C=C/C=C/C=C/C=C\\C=C/C=C/C=C/C2C)O3)cc1 (stereo not drawn)"
  targetOfAssay: "UACC-62 melanoma"
  classAssignment: "inactive"
- compound: "CCCC(=O)Nc1ncnc2c1ncn2C1OC2COP(=O)(O)OC2C1OC(=O)CCC (stereo not drawn)"
  targetOfAssay: "UACC-62 melanoma"
  classAssignment: "inactive"
- compound: "O=C1c2ccccc2CCC1(Br)Br"
  targetOfAssay: "UACC-62 melanoma"
  classAssignment: "inactive"
- compound: "c1ccc(C2=NN[C@H](c3cn(-c4ccccc4)nc3-c3ccccc3)C2)cc1"
  targetOfAssay: "UACC-62 melanoma"
  classAssignment: "inactive"
- compound: "Cc1cccc2c1NC(=O)C2(c1ccc(O)cc1)c1ccc(O)cc1"
  targetOfAssay: "UACC-62 melanoma"
  classAssignment: "inactive"
- compound: "COCO[C@@H]1CC2C=Nc3cc(OCc4ccccc4)c(OC)cc3C(=O)N2C1 (stereo partly drawn)"
  targetOfAssay: "UACC-62 melanoma"
  classAssignment: "inactive"
- compound: "COC(=O)c1cc(NC(=O)CN(CCN(CC(=O)O)CC(=O)Nc2ccc(O)c(C(=O)OC)c2)CC(=O)O)ccc1O"
  targetOfAssay: "UACC-62 melanoma"
  classAssignment: "inactive"
- compound: "CC(=O)OC1CC(C)c2c(Cl)ncnc21 (stereo not drawn)"
  targetOfAssay: "UACC-62 melanoma"
  classAssignment: "inactive"
- compound: "CS(=O)(=O)c1ccc(-c2[nH]c3ccc(F)cc3c2/C=N/NC(N)=S)cc1"
  targetOfAssay: "UACC-62 melanoma"
  classAssignment: "inactive"
- compound: "Cc1nc2sc(C(=O)Nc3cccc(Cl)c3C)c(N)c2cc1C(=O)c1ccccc1"
  targetOfAssay: "UACC-62 melanoma"
  classAssignment: "active"
- compound: "O=C(Nc1ccc(O)c(NS(=O)(=O)c2ccc(F)cc2)c1)c1ccc(-c2ccccc2)cc1"
  targetOfAssay: "UACC-62 melanoma"
  classAssignment: "inactive"
- compound: "O=C(Nc1ccc(Cl)cc1F)c1cc(Cl)ccc1O"
  targetOfAssay: "UACC-62 melanoma"
  classAssignment: "active"
- compound: "Cc1csc(-c2ccc3c(c2)COC3(CCCN(C)C)c2ccc(F)cc2)c1 (stereo not drawn)"
  targetOfAssay: "UACC-62 melanoma"
  classAssignment: "inactive"
- compound: "CCC[CH2][Ge]([CH2]CCC)([CH2]CCC)[O]C(=O)C(OC(C)=O)c1ccccc1 (stereo not drawn)"
  targetOfAssay: "UACC-62 melanoma"
  classAssignment: "inactive"
